- Run Description: Cell viability measured by CellTiter-Glo assay in Vero cells at MOI 0.05 after 72hr
- Reported Conditions: chlorocebus sabaeus, vero

[
  {
    "Smiles Input": "CC(C)(C)c1ccc(C(=O)CCCN2CCC(OC(c3ccccc3)c3ccccc3)CC2)cc1",
    "Endpoint Unit": "µM",
    "CC50 at 72 h": 15.4
  }
]

----------
- Run Description: Selectivity index for antiviral vs cytotoxic activity in Vero cells (CC50/IC50)
- Reported Conditions: monkey, Vero cells

[
  {
    "Compound": "CC[C@@H](C(=O)[C@@H](C)[C@@H](O)[C@H](C)[C@@H]1O[C@@H]([C@@H](CC)C(=O)O)CC[C@@H]1C)[C@H]1O[C@]2(C=C[C@@H](O)[C@]3(CC[C@@](C)([C@H]4CC[C@](O)(CC)[C@H](C)O4)O3)O2)[C@H](C)C[C@@H]1C",
    "selectivity ratio": 211
  },
  {
    "Compound": "CN(C)CCOc1ccc(/C(=C(/CCCl)c2ccccc2)c2ccccc2)cc1",
    "selectivity ratio": 2.82
  },
  {
    "Compound": "C[C@H]1O[C@@H](O[C@H]2[C@@H](O)C[C@H](O[C@H]3[C@@H](O)C[C@H](O[C@H]4CC[C@@]5(C)[C@H](CC[C@@H]6[C@@H]5CC[C@]5(C)[C@@H](C7=CC(=O)OC7)CC[C@]65O)C4)O[C@@H]3C)O[C@@H]2C)C[C@H](O)[C@@H]1O",
    "selectivity ratio": 214
  },
  {
    "Compound": "Cc1cc(Nc2ncc(Cl)c(Nc3ccccc3S(=O)(=O)C(C)C)n2)c(OC(C)C)cc1C1CCNCC1",
    "selectivity ratio": 2.39
  },
  {
    "Compound": "CC(=O)O[C@H]1C[C@H](O[C@H]2[C@@H](O)C[C@H](O[C@H]3[C@@H](O)C[C@H](O[C@H]4CC[C@@]5(C)[C@H](CC[C@@H]6[C@@H]5C[C@@H](O)[C@]5(C)[C@@H](C7=CC(=O)OC7)CC[C@]65O)C4)O[C@@H]3C)O[C@@H]2C)O[C@H](C)[C@H]1O[C@@H]1O[C@H](CO)[C@@H](O)[C@H](O)[C@H]1O [LANATOSIDE C]",
    "selectivity ratio": 1
  },
  {
    "Compound": "CC1(C)C=Cc2c(c3c(c4c(=O)c(-c5ccc(O)cc5)coc24)OC(C)(C)CC3)O1",
    "selectivity ratio": 3.07
  }
]

----------
- Run Description: Cell viability measured by CellTiter-Glo assay in Vero cells at MOI 0.05 after 72hr
- Reported Conditions: chlorocebus sabaeus, Vero cells
Starred links: 1 amine or outer side, 2 acyl side, 3 side chain; linkers in the order of their positions; H or OH if unused. Positions of bridges follow the written chain, without caps; N, C: chain ends. Non-standard residues stand in square brackets, D forms with d. Residues, ends and D or L forms follow the SMILES beside them. *: point of attachment. pTerphenylCO(4''-OnC5H11) = CCCCCOc1ccc(-c2ccc(-c3ccc(C(=O)*)cc3)cc2)cc1; Orn(4R-OH,5R-OH) = O=C([C@H](C[C@@H](O)[C@@H](O)N[*:3])N[*:1])[*:2]; hTyr(3S-OH,4S-OH) = N[C@H](C(=O)O)[C@H](O)[C@@H](O)c1ccc(O)cc1; Pro(3S-OH,4S-Me) = C[C@H]1CN[C@H](C(=O)O)[C@H]1O; Hyp = O=C(O)[C@@H]1C[C@@H](O)CN1
Each record here notes measured CC50 at 72 h.

[
  {
    "Compound": "Cc1c(-c2ccc(O)cc2)n(Cc2ccc(OCCN3CCCCCC3)cc2)c2ccc(O)cc12",
    "Endpoint Unit": "µM",
    "Comparative Sign": "=",
    "CC50 at 72 h": 15
  },
  {
    "Compound": "CC(=O)O[C@H]1C[C@H](O[C@H]2[C@@H](O)C[C@H](O[C@H]3[C@@H](O)C[C@H](O[C@H]4CC[C@@]5(C)[C@H](CC[C@@H]6[C@@H]5C[C@@H](O)[C@]5(C)[C@@H](C7=CC(=O)OC7)CC[C@]65O)C4)O[C@@H]3C)O[C@@H]2C)O[C@H](C)[C@H]1O[C@@H]1O[C@H](CO)[C@@H](O)[C@H](O)[C@H]1O [LANATOSIDE C]",
    "Endpoint Unit": "µM",
    "Comparative Sign": ">",
    "CC50 at 72 h": 50
  },
  {
    "Compound": "CSc1ccc2c(c1)N(CCC1CCCCN1C)c1ccccc1S2 (stereo not given)",
    "Endpoint Unit": "µM",
    "Comparative Sign": "=",
    "CC50 at 72 h": 16
  },
  {
    "Compound": "OC1(c2ccc(Cl)c(C(F)(F)F)c2)CCN(CCCC(c2ccc(F)cc2)c2ccc(F)cc2)CC1",
    "Endpoint Unit": "µM",
    "Comparative Sign": "=",
    "CC50 at 72 h": 8.77
  },
  {
    "Compound": "C=CC(=O)Nc1cc(Nc2nccc(-c3cn(C)c4ccccc34)n2)c(OC)cc1N(C)CCN(C)C",
    "Endpoint Unit": "µM",
    "Comparative Sign": "=",
    "CC50 at 72 h": 13.2
  },
  {
    "Compound": "CCN(CC)CCOc1ccc(C(O)(Cc2ccc(Cl)cc2)c2ccc(C)cc2)cc1 (stereo not given)",
    "Endpoint Unit": "µM",
    "Comparative Sign": "=",
    "CC50 at 72 h": 14.7
  },
  {
    "Compound": "Nc1ccc(/N=N/c2ccccc2)c(N)n1",
    "Endpoint Unit": "µM",
    "Comparative Sign": ">",
    "CC50 at 72 h": 50
  },
  {
    "Compound": "CCN(CC)CCOc1ccc2c(c1)C(=O)c1cc(OCCN(CC)CC)ccc1-2",
    "Endpoint Unit": "µM",
    "Comparative Sign": "=",
    "CC50 at 72 h": 19.7
  },
  {
    "Compound": "OC(c1cc(C(F)(F)F)nc2c(C(F)(F)F)cccc12)C1CCCCN1 (stereo not given)",
    "Endpoint Unit": "µM",
    "Comparative Sign": "=",
    "CC50 at 72 h": 14
  },
  {
    "Compound": "CN(C)C(=O)C(CCN1CCC(O)(c2ccc(Cl)cc2)CC1)(c1ccccc1)c1ccccc1 [LOPERAMIDE]",
    "Endpoint Unit": "µM",
    "Comparative Sign": "=",
    "CC50 at 72 h": 29.3
  },
  {
    "Compound": "c1ccc2c(c1)Sc1ccccc1N2CC1CN2CCC1CC2 (stereo not given)",
    "Endpoint Unit": "µM",
    "Comparative Sign": "=",
    "CC50 at 72 h": 27.3
  },
  {
    "Compound": "CCN(CC)CCCC(C)Nc1ccnc2cc(Cl)ccc12 (stereo not given)",
    "Endpoint Unit": "µM",
    "Comparative Sign": ">",
    "CC50 at 72 h": 150
  },
  {
    "Compound": "CC(C)=CCCC1(C)C=Cc2c(O)c3c(c(CC=C(C)C)c2O1)OC12C(=CC4CC1C(C)(C)OC2(C/C=C(/C)C(=O)O)C4O)C3=O (stereo not given) [DIHYDROGAMBOGIC ACID]",
    "Endpoint Unit": "µM",
    "Comparative Sign": "=",
    "CC50 at 72 h": 9.85
  },
  {
    "Compound": "C[C@H]1O[C@@H](O[C@H]2[C@@H](O)C[C@H](O[C@H]3[C@@H](O)C[C@H](O[C@H]4CC[C@@]5(C)[C@H](CC[C@@H]6[C@@H]5CC[C@]5(C)[C@@H](C7=CC(=O)OC7)CC[C@]65O)C4)O[C@@H]3C)O[C@@H]2C)C[C@H](O)[C@@H]1O",
    "Endpoint Unit": "µM",
    "Comparative Sign": ">",
    "CC50 at 72 h": 50
  },
  {
    "Compound": "CC(C)=CCc1c2c(c3occ(-c4ccc(O)cc4)c(=O)c3c1O)C=CC(C)(C)O2",
    "Endpoint Unit": "µM",
    "Comparative Sign": "=",
    "CC50 at 72 h": 11.4
  },
  {
    "Compound": "CCCCCOc1ccc(-c2ccc(-c3ccc(C(=O)N[C@H]4C[C@@H](O)[C@@H](O)NC(=O)[C@@H]5[C@@H](O)[C@@H](C)CN5C(=O)[C@H]([C@@H](C)O)NC(=O)[C@H]([C@H](O)[C@@H](O)c5ccc(O)cc5)NC(=O)[C@@H]5C[C@@H](O)CN5C(=O)[C@H]([C@@H](C)O)NC4=O)cc3)cc2)cc1 [ANIDULAFUNGIN] ({pTerphenylCO(4''-OnC5H11)}-[Orn(4R-OH,5R-OH)]T[Hyp][hTyr(3S-OH,4S-OH)]T[Pro(3S-OH,4S-Me)]; lactam 1-C)",
    "Endpoint Unit": "µM",
    "Comparative Sign": ">",
    "CC50 at 72 h": 50
  },
  {
    "Compound": "C[C@@H]1O[C@@H](O[C@@H]2C=C3CC[C@@H]4[C@H](CC[C@]5(C)[C@@H](c6ccc(=O)oc6)CC[C@]45O)[C@@]3(C)CC2)[C@H](O)[C@H](O)[C@H]1O",
    "Endpoint Unit": "µM",
    "Comparative Sign": ">",
    "CC50 at 72 h": 50
  },
  {
    "Compound": "CC(C)C(=O)OCC(=O)[C@@]12O[C@H](C3CCCCC3)O[C@@H]1C[C@H]1[C@@H]3CCC4=CC(=O)C=C[C@]4(C)[C@H]3[C@@H](O)C[C@@]12C [CICLESONIDE]",
    "Endpoint Unit": "µM",
    "Comparative Sign": ">",
    "CC50 at 72 h": 50
  },
  {
    "Compound": "CCN(CC)CCCC(C)Nc1c2ccc(Cl)cc2nc2ccc(OC)cc12 (stereo not given)",
    "Endpoint Unit": "µM",
    "Comparative Sign": "=",
    "CC50 at 72 h": 14.7
  },
  {
    "Compound": "Oc1c(Cl)cc(Cl)c(Cl)c1Cc1c(O)c(Cl)cc(Cl)c1Cl",
    "Endpoint Unit": "µM",
    "Comparative Sign": "=",
    "CC50 at 72 h": 19.3
  },
  {
    "Compound": "CCC(CC)COC(=O)[C@H](C)N[P@](=O)(OC[C@H]1O[C@@](C#N)(c2ccc3c(N)ncnn23)[C@H](O)[C@@H]1O)Oc1ccccc1",
    "Endpoint Unit": "µM",
    "Comparative Sign": ">",
    "CC50 at 72 h": 25
  },
  {
    "Compound": "O=C(Nc1cc(Cl)cc(Cl)c1O)c1c(O)c(Cl)cc(Cl)c1Cl [OXYCLOZANIDE]",
    "Endpoint Unit": "µM",
    "Comparative Sign": ">",
    "CC50 at 72 h": 50
  },
  {
    "Compound": "CCN(CC)Cc1cc(Nc2ccnc3cc(Cl)ccc23)ccc1O",
    "Endpoint Unit": "µM",
    "Comparative Sign": ">",
    "CC50 at 72 h": 50
  },
  {
    "Compound": "CC/C(=C(/c1ccc(OCCN(C)C)cc1)c1cccc(O)c1)c1ccccc1",
    "Endpoint Unit": "µM",
    "Comparative Sign": "=",
    "CC50 at 72 h": 15.8
  },
  {
    "Compound": "Cc1cccc(C)c1OCC(=O)N[C@@H](Cc1ccccc1)[C@@H](O)C[C@H](Cc1ccccc1)NC(=O)[C@H](C(C)C)N1CCCNC1=O",
    "Endpoint Unit": "µM",
    "Comparative Sign": ">",
    "CC50 at 72 h": 50
  }
]
